B1: ARL6IP1 (parent)
chain: YLDPSVLSGVSCFVMFLCLADYLV

# Variants of: B1
# experiment-notes: protein stability index of a GFP-peptide fusion (GPS, HEK-293T) (PSI 1-6); higher = more stable;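 also: lentivirally expressed fusions sorted by FACS into six bins by GFP to DsRed ratio, PSI derived from sequencing read proportions per bin multiplied by bin number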
# experimental-setup: c terminus: a fixed tail appended
We begin with a simple list: items and their reported protein stability index.
experimental-readout: protein stability index

mutation=L17T experimental_readout="protein stability index" endpoint_result=3.26
mutation=V14R experimental_readout="protein stability index" endpoint_result=1.65
mutation=F16W experimental_readout="protein stability index" endpoint_result=2.85
mutation=L19E experimental_readout="protein stability index" endpoint_result=3.85
mutation=M15N experimental_readout="protein stability index" endpoint_result=2.88
mutation=C18A experimental_readout="protein stability index" endpoint_result=1.91
mutation=L7V experimental_readout="protein stability index" endpoint_result=3.69
mutation=M15V experimental_readout="protein stability index" endpoint_result=2.38
mutation=L23K experimental_readout="protein stability index" endpoint_result=3.29
mutation=F16R experimental_readout="protein stability index" endpoint_result=3.63
mutation=V10I experimental_readout="protein stability index" endpoint_result=3.18
mutation=A20I experimental_readout="protein stability index" endpoint_result=1.85
mutation=G9P experimental_readout="protein stability index" endpoint_result=2.66
mutation=L17W experimental_readout="protein stability index" endpoint_result=3.18
mutation=L19A experimental_readout="protein stability index" endpoint_result=2.42
mutation=D3A experimental_readout="protein stability index" endpoint_result=5.08
mutation=L7H experimental_readout="protein stability index" endpoint_result=3.82
mutation=V10W experimental_readout="protein stability index" endpoint_result=2.21
mutation=L2K experimental_readout="protein stability index" endpoint_result=3.31
mutation=V24F experimental_readout="protein stability index" endpoint_result=2.97
mutation=D3T experimental_readout="protein stability index" endpoint_result=2.59
mutation=Y22P experimental_readout="protein stability index" endpoint_result=2.87
mutation=V14H experimental_readout="protein stability index" endpoint_result=2.06
mutation=G9E experimental_readout="protein stability index" endpoint_result=2.77
mutation=S8L experimental_readout="protein stability index" endpoint_result=3.77
mutation=D3S experimental_readout="protein stability index" endpoint_result=2.72
mutation=P4I experimental_readout="protein stability index" endpoint_result=2.66
mutation=Y1A experimental_readout="protein stability index" endpoint_result=1.59
mutation=V14W experimental_readout="protein stability index" endpoint_result=2.15
mutation=L2C experimental_readout="protein stability index" endpoint_result=2.99
mutation=S5I experimental_readout="protein stability index" endpoint_result=3.61
mutation=V14M experimental_readout="protein stability index" endpoint_result=3.79
mutation=V14E experimental_readout="protein stability index" endpoint_result=2.54
mutation=F13C experimental_readout="protein stability index" endpoint_result=2.92
mutation=L19M experimental_readout="protein stability index" endpoint_result=2.06
mutation=L17K experimental_readout="protein stability index" endpoint_result=3.75
mutation=S5R experimental_readout="protein stability index" endpoint_result=3.56
mutation=V14L experimental_readout="protein stability index" endpoint_result=2.1
mutation=L7N experimental_readout="protein stability index" endpoint_result=2.74
mutation=V14P experimental_readout="protein stability index" endpoint_result=3.67
mutation=S5M experimental_readout="protein stability index" endpoint_result=3.03
mutation=V10Q experimental_readout="protein stability index" endpoint_result=2.89
mutation=A20H experimental_readout="protein stability index" endpoint_result=2.64
mutation=L19P experimental_readout="protein stability index" endpoint_result=2.1
mutation=G9H experimental_readout="protein stability index" endpoint_result=3.27
mutation=V6Y experimental_readout="protein stability index" endpoint_result=2.66
mutation=L2D experimental_readout="protein stability index" endpoint_result=3.95
mutation=G9K experimental_readout="protein stability index" endpoint_result=2.49
mutation=S5L experimental_readout="protein stability index" endpoint_result=3.09
mutation=G9L experimental_readout="protein stability index" endpoint_result=3.4
mutation=F13N experimental_readout="protein stability index" endpoint_result=2.42
mutation=L19W experimental_readout="protein stability index" endpoint_result=1.73
mutation=S8V experimental_readout="protein stability index" endpoint_result=3.82
mutation=Y22N experimental_readout="protein stability index" endpoint_result=3.07
mutation=L17G experimental_readout="protein stability index" endpoint_result=4.55
mutation=D21V experimental_readout="protein stability index" endpoint_result=3.96
mutation=S11V experimental_readout="protein stability index" endpoint_result=4.17
mutation=Y22S experimental_readout="protein stability index" endpoint_result=3.94
mutation=V10N experimental_readout="protein stability index" endpoint_result=3.52
mutation=Y22H experimental_readout="protein stability index" endpoint_result=2.31
mutation=L7T experimental_readout="protein stability index" endpoint_result=2.8
mutation=V14S experimental_readout="protein stability index" endpoint_result=2.83
mutation=V24L experimental_readout="protein stability index" endpoint_result=3.97
mutation=C12S experimental_readout="protein stability index" endpoint_result=1.48
mutation=C12Q experimental_readout="protein stability index" endpoint_result=4.12
mutation=M15H experimental_readout="protein stability index" endpoint_result=3.49
mutation=L2H experimental_readout="protein stability index" endpoint_result=2.67
mutation=M15S experimental_readout="protein stability index" endpoint_result=2.79
mutation=G9R experimental_readout="protein stability index" endpoint_result=2.5
mutation=S8I experimental_readout="protein stability index" endpoint_result=2.96
mutation=L2T experimental_readout="protein stability index" endpoint_result=3.75
mutation=D21Y experimental_readout="protein stability index" endpoint_result=1.55
mutation=S11F experimental_readout="protein stability index" endpoint_result=2.24
mutation=V10L experimental_readout="protein stability index" endpoint_result=2.97
mutation=C18L experimental_readout="protein stability index" endpoint_result=3.54
mutation=S8T experimental_readout="protein stability index" endpoint_result=2.79
mutation=F16N experimental_readout="protein stability index" endpoint_result=2.88
mutation=L19C experimental_readout="protein stability index" endpoint_result=4.14
mutation=Y1N experimental_readout="protein stability index" endpoint_result=4.11
mutation=Y1M experimental_readout="protein stability index" endpoint_result=3.37
mutation=D3V experimental_readout="protein stability index" endpoint_result=2.91
mutation=F13A experimental_readout="protein stability index" endpoint_result=3.86
mutation=D3H experimental_readout="protein stability index" endpoint_result=1.69
mutation=S11H experimental_readout="protein stability index" endpoint_result=2.62
mutation=L7M experimental_readout="protein stability index" endpoint_result=2.98
mutation=G9V experimental_readout="protein stability index" endpoint_result=3.3
mutation=V24A experimental_readout="protein stability index" endpoint_result=2.78
mutation=V6R experimental_readout="protein stability index" endpoint_result=2.76
mutation=D3Y experimental_readout="protein stability index" endpoint_result=2.54
mutation=C18K experimental_readout="protein stability index" endpoint_result=2.37
mutation=V14K experimental_readout="protein stability index" endpoint_result=1.98
